Source listed as patent US20240116985A1.

biological target: full-length beta-Catenin (Uniprot ID P35222) (Homo sapiens (Human)) (UniProt P35222); assay: fluorescence polarization competition; full-length beta-catenin with 5FAM-labeled TCF4 (10-53) probe as competitor
Sequence (P35222 whole entry): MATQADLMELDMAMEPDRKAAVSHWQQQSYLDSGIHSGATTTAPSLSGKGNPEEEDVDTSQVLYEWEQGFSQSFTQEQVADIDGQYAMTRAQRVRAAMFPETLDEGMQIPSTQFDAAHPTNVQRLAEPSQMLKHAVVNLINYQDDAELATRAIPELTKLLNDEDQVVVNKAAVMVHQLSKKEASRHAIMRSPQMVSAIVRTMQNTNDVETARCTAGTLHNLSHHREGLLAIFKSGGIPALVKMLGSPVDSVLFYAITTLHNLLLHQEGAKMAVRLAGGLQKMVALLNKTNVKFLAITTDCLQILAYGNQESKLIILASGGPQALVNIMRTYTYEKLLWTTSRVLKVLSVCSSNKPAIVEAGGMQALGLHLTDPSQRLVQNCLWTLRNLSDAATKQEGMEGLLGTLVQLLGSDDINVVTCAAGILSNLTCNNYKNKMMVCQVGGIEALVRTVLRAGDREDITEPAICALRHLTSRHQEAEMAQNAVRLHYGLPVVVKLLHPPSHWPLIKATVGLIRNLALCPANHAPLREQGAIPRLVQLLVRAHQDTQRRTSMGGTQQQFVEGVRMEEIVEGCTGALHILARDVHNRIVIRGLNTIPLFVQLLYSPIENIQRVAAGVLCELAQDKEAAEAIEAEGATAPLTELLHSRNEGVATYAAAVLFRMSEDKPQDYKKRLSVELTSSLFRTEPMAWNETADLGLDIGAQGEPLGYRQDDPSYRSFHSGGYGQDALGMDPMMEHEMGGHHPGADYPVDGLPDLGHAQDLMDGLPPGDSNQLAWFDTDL
Starred links: 1 amine or outer side, 2 acyl side, 3 side chain; linkers in the order of their positions; H or OH if unused. Positions of bridges follow the written chain, without caps; N, C: chain ends. Non-standard residues stand in square brackets, D forms with d. Primed or numbered codes have the meaning given here. PyrS2″ = (S)-3-amino-1-((pent-4-en-1-yloxy)carbonyl)pyrrolidine-3-carboxylic acid (stapling residue), C=CCCCOC(=O)N1CC[C@@](N[*:1])(C(=O)[*:2])C1; B5(4) = 2,2-bis(4-pentenyl)glycine = 2-amino-2-(pent-4-en-1-yl)hept-6-enoic acid (stitching residue), C=CCCCC(CCCC=C)(N[*:1])C(=O)[*:2]; TfeGA = (S)-2-amino-3-((carboxymethyl)(2,2,2-trifluoroethyl)amino)propanoic acid, O=C([C@H](CN(CC(=O)[*:3])CC(F)(F)F)N[*:1])[*:2]; B5(3) = 2,2-bis(4-pentenyl)glycine (stitching residue), C=CCCCC(CCCC=C)(N[*:1])C(=O)[*:2]; Phe(3-COOH) = N[C@@H](Cc1cccc(C(=O)O)c1)C(=O)O; Phe(2-Cl) = N[C@@H](Cc1ccccc1Cl)C(=O)O; Bta = N[C@@H](Cc1csc2ccccc12)C(=O)O; αAllylPro = C=CC[C@@]1(C(=O)O)CCCN1; tBuAla = CC(C)(C)C[C@H](N)C(=O)O; 3Thi = N[C@@H](Cc1ccsc1)C(=O)O; S8 = C=CCCCCCC[C@](C)(N)C(=O)O
Observed property: EC50 (nM)

(a) Ac-[αAllylPro]D[tBuAla][B5(4)]D[Phe(3-COOH)]AAFS[PyrS2″][3Thi][Bta]Q-NH2 (staple 1-4, 4-11; also: later eluting HPLC staple isomer) [I-979]
(b) Ac-[αAllylPro]D[tBuAla][B5(3)]D[TfeGA]AAFS[S8][Phe(2-Cl)][Bta]Q-NH2 (staple 1-4, 4-11) [I-995]
Incoming: // task: argmin of EC50 over [ a , b ] Returns: label corresponding to the selected item.
Outgoing: b
(b: 55 nM, a: 240 nM)
